Hey, just so you know, these numbers are from patent US20050209278A1.

# TARGET: MMP-14 (Homo sapiens)
# Construct: The catalytic domain enzyme was expressed in E. coli inclusion bodies, solubilized in urea; made in house
# TEST: MMP-14 inhibition (in vitro Ki)
# Format: biochemical
# APPLIED_CONDITIONS: Table 8; read-out: MMP-14 Ki
Where a name gives a salt, the structure may show the parent alone.
MEASURED_METRIC: pKi
FYI, pKi means -log10 of a concentration in mol per litre.

O=C(NO)C1(S(=O)(=O)N2CCC(c3ccc(CCC(F)(F)C(F)(F)F)cn3)CC2)CCCCC1 [Example A56, Hydrochloride]; 6.00
O=C(NO)C1(S(=O)(=O)N2CCC(c3ccc(OCC(F)(F)C(F)F)cn3)CC2)CCOCC1 [Example A59, Hydrochloride]; 5.29
O=C(NO)C1(S(=O)(=O)N2CCC(OCCCc3ccccc3)CC2)CCOCC1 [Example A36G]; 5.58
O=C(NO)C1(S(=O)(=O)N2CCC(c3ccc(OCC(F)(F)F)cn3)CC2)CCOCC1 [Example A57, Hydrochloride]; 5.69

The reported pKi of the molecule O=C(NO)C1(S(=O)(=O)N2CCC(CCCCCCCC(F)(F)F)CC2)CCOCC1 [Example A52] was 6.04

The reported pKi of the molecule CC(C)CCCCCOC1CCN(S(=O)(=O)C2(C(=O)NO)CCOCC2)CC1 [Example A36F] was 5.72

The reported pKi of the molecule O=C(NO)C1(S(=O)(=O)N2CCC(OCCCCCC(F)(F)F)CC2)CCOCC1 [Example A49] was 5.17
